# system tested: T1, activated human complement C1s (human, UniProt P09871 16-688)
# T1 construct: also called aC1s; active C1s
# T1 sequence: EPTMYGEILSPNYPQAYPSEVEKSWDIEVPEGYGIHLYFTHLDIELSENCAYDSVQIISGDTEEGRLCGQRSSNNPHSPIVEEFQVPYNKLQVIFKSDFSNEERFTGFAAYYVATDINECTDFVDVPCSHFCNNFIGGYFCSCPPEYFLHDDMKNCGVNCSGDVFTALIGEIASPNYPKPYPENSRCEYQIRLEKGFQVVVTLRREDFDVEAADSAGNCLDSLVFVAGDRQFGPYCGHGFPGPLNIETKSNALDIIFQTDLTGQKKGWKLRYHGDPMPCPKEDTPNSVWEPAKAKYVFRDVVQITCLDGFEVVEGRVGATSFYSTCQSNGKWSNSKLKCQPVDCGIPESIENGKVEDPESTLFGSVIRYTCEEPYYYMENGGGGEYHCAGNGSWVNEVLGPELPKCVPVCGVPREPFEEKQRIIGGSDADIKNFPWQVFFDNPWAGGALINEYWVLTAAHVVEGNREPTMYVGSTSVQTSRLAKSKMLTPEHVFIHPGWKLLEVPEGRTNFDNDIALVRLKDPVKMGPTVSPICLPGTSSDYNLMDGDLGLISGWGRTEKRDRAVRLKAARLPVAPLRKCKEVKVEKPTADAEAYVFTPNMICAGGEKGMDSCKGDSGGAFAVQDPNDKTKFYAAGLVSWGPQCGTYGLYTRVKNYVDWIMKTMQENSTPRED
# procedure text: direct binding of antibody to activated C1s (aC1s); assay format not stated

# binder, EC50 / nM
measured = [
    ("TNT005.001 (antibody, V domains shown, Unlabelled parental antibody; also called parental TNT005 (not biotinylated)) VH: EVQLQQSGAELVRPGASVKLSCTASGFNIKDDYIHWVKQRPEQGLEWIGRIDPADGHTKYAPKFQVKATITADTSSNTAYLQLSSLTSEDTAVYYCARYGYGREVFDYWGQGTTLTVSS VL: DIVLTQSPASLAVSLGQRATISCKASQSVDYDGDSYMNWYQQKTGQPPKILIYDASNLESGIPARFSGSGSGTDFTLNIHPVEEEDAAIYYCQQSNEDPWTFGGGTKLEIK", 0.0559),
    ("humanized TNT005 variant VH variant 4+Vk variant 5 (antibody, V domains shown, also called VH variant 4 + VL variant 5) VH: QVQLVQSGAEVKKPGASVKVSCTASGFNIKDDYIHWVRQAPGQGLEWIGRIDPADGHTKYAPKFQVKVTITADTSTSTAYMELSSLRSEDTAVYYCARYGYGREVFDYWGQGTTVTVSS VL: DIVLTQSPDSLAVSLGERATISCKASQSVDYDGDSYMNWYQQKPGQPPKLLIYDASNLESGIPARFSGSGSGTDFTLTISSLEPEDFAVYYCQQSNEDPWTFGGGTKVEIK", 0.205),
    ("humanized TNT005 variant VH variant 2+Vk variant 5 (antibody, V domains shown, also called VH variant 2 + VL variant 5) VH: EVQLVQSGAEVKKPGASVKLSCTASGFNIKDDYIHWVKQAPGQGLEWIGRIDPADGHTKYAPKFQVKATITADTSTNTAYLELSSLRSEDTAVYYCARYGYGREVFDYWGQGTTVTVSS VL: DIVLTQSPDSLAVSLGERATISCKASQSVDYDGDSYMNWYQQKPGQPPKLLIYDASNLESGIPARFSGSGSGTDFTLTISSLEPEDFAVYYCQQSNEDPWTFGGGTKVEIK", 0.124),
]
